meta.source: PubChem BioAssay (NCATS)

Assay: Primary qHTS for inhibitors of nuclear receptor binding SET domain protein 2 (NSD2) in an RCH-ACV wild type WT cells (2C) (AID 1645877); further: on the % scale 0 is the no-effect control and ±100 the full control effect; nearly all actives have a fitted effect of over 70% in size
Conditions: RCH-ACV (leukaemia line) NSD2 WT (2C) viability, CellTiter-Glo, 72 h; series mostly up to 44.9 µM
Results filed as inconclusive are left out. Activity calls are given as the source filed them. The call rests on the fitted dose curve; in most records, active means well fitted inhibition curve with a large enough effect; inconclusive means small, poorly fitted or top-dose-only effect; inactive means no such curve, though single readings can be large or run the other way. Where a SMILES comes first, the peptide text is derived from it.

compound	activity change, negative = cell killing
C=C[C@H]1[C@H](O[C@@H]2O[C@H](CO[C@@H]3OC[C@](O)(CO)[C@H]3O)[C@@H](O)[C@H](O)[C@H]2O)OC=C2C(=O)OCC[C@H]21	inactive
C[C@@H](O)[C@H](N)C(=O)N1CCC[C@H]1C(=O)N1CCC[C@H]1C(=O)N[C@H](C(N)=O)[C@@H](C)O (H-TPPT-NH2)	-0.759% [at 9.23 µM] (inactive)
CCC(=O)O[C@]1(C(=O)CCl)[C@@H](C)C[C@H]2[C@@H]3C[C@H](F)C4=CC(=O)C=C[C@]4(C)[C@@]3(F)[C@@H](O)C[C@@]21C	inactive
